assayed system: T1, human GPC3 (human, UniProt P51654 25-563)
T1 construct: range 25-563; soluble analyte; also called soluble human GPC3; glypican 3
T1 sequence (P51654 25-563 limits assumed): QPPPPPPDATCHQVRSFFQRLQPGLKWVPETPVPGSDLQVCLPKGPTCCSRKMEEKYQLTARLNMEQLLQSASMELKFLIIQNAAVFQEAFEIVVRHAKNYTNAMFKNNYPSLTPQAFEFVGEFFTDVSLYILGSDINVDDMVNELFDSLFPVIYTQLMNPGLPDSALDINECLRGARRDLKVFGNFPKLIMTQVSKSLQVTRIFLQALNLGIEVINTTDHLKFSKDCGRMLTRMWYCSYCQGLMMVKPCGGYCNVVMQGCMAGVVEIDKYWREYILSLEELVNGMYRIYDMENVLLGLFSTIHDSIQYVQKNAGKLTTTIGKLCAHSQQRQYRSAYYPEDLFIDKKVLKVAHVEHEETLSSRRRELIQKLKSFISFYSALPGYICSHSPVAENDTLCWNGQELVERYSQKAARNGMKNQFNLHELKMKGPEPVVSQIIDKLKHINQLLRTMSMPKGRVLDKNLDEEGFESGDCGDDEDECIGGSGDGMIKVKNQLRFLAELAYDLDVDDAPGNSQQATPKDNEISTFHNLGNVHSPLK
test details: SPR
For each entry below, report its pKd value.
One number for each entry, as −log10 of the molar value.

binder	pKd
H0610-G1dh/none-Hi-Kn010G3/L0042-k0 (antibody, V domains shown, one-arm) VH: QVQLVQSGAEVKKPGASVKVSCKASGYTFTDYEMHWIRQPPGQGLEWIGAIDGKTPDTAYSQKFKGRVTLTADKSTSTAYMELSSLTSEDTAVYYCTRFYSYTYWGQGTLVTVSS VL: DIVMTQSPLSLPVTPGEPASISCRSSQSLVHMNRNTYLHWYQQKPGQAPRLLIYKVSNRFSGVPDRFSGSGSGTDFTLKISRVEAEDVGVYYCGQGTQVPYTFGQGTKLEIK	8.37

// query Look up pKd: H0610-G1dh/none-Hi-Kn010G3/L0016-k0 (antibody, V domains shown, one-arm) VH: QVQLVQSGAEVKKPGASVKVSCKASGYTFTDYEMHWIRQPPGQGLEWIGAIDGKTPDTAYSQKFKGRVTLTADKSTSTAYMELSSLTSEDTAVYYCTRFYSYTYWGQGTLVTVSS VL: DIVMTQSPLSLPVTPGEPASISCRSSQSVVHSNRNTYLHWYQQKPGQAPRLLIYKVSNRFSGVPDRFSGSGSGTDFTLKISRVEAEDVGVYYCGQGTQVPYTFGQGTKLEIK
// result 8.35
